Species on record: Rattus norvegicus
Test: Total activity of the entire contents of cecum segment in rat intestine
Assay type: functional
Metric Name: Total activity (µM/min)
# unit: µM/min | format: bare number

IN: Can you share its Total activity? I mean this compound: `C[C@]12C=CC(=O)C=C1CC[C@@H]1[C@@H]2[C@@H](O)C[C@@]2(C)[C@H]1CC[C@]2(O)C(=O)CO[C@@H]1O[C@H](CO)[C@@H](O[C@@H]2O[C@H](CO)[C@@H](O)[C@H](O)[C@H]2O)[C@H](O)[C@H]1O`
OUT: 2.2

IN: Again, but for C[C@]12C=CC(=O)C=C1CC[C@@H]1[C@@H]2C(O)C[C@@]2(C)[C@H]1CC[C@]2(O)C(=O)CO[C@@H]1O[C@@H](CO)[C@@H](O)[C@H](O)[C@H]1O (stereo partly drawn)
OUT: 13

IN: Again, but for `O=[N+]([O-])c1ccc(O[C@@H]2O[C@H](CO)[C@H](O)[C@H](O)[C@H]2O)cc1`
OUT: 30.8

---

Assay: Km(app) value was determined in homogenates of pooled cecal contents in rats
Type: ADME
Settings: rat, read-out: Km app
Answer each item with its documented Km.

IN: Can you share its Km? I mean this molecule: CC12CCC(=O)C=C1CCC1C2C(O)CC2(C)C1CC[C@]2(O)C(=O)CO[C@@H]1O[C@@H](CO)[C@@H](O)[C@H](O)[C@H]1O (stereo not given in full)
OUT: 33.3 µM

IN: Again, but for C[C@]12C=CC(=O)C=C1CC[C@@H]1[C@@H]2C(O)C[C@@]2(C)[C@H]1CC[C@]2(O)C(=O)CO[C@@H]1O[C@H](CO)[C@@H](O)[C@H](O)[C@H]1O (stereo not given in full)
OUT: 4.5 µM

IN: Again, but for C[C@]12C=CC(=O)C=C1CC[C@@H]1[C@@H]2C(O)C[C@@]2(C)[C@H]1CC[C@]2(O)C(=O)CO[C@@H]1O[C@@H](CO)[C@@H](O)[C@H](O)[C@H]1O (stereo not given in full)
OUT: 20 µM

IN: Again, but for CC12CCC(=O)C=C1CCC1C2C(O)CC2(C)C1CC[C@]2(O)C(=O)CO[C@@H]1O[C@H](CO)[C@@H](O)[C@H](O)[C@H]1O (stereo not given in full)
OUT: 5.7 µM

IN: Again, but for CC12CCC(=O)C=C1CCC1C3CC[C@](O)(C(=O)CO[C@H]4O[C@H](CO)[C@@H](O)[C@H](O)[C@H]4O)C3(C)CC(O)[C@@]12F (stereo not given in full)
OUT: 2.5 µM

IN: Again, but for `O=[N+]([O-])c1ccc(O[C@@H]2O[C@H](CO)[C@@H](O)[C@H](O)[C@H]2O)cc1`
OUT: 360 µM

IN: Again, but for CC1CC2C3CCC4=CC(=O)C=CC4(C)[C@@]3(F)C(O)CC2(C)[C@@]1(O)C(=O)CO[C@@H]1O[C@H](CO)[C@@H](O)[C@H](O)[C@H]1O (stereo not given in full)
OUT: 16.7 µM

IN: Again, but for CC1CC2C3CCC4=CC(=O)C=CC4(C)[C@@]3(F)C(O)CC2(C)[C@@]1(O)C(=O)CO[C@@H]1O[C@@H](CO)[C@@H](O)[C@H](O)[C@H]1O (stereo not given in full)
OUT: 13.3 µM

IN: Again, but for `O=[N+]([O-])c1ccc(O[C@@H]2O[C@H](CO)[C@H](O)[C@H](O)[C@H]2O)cc1`
OUT: 166 µM

IN: Again, but for CC12CCC(=O)C=C1CCC1C3CC[C@](O)(C(=O)CO[C@H]4O[C@@H](CO)[C@@H](O)[C@H](O)[C@H]4O)C3(C)CC(O)[C@@]12F (stereo not given in full)
OUT: 4.4 µM

---

Species on record: Rattus norvegicus
Test: Specific activity of the stomach segment in rat intestine
Format: functional
Metric Name: Specific activity (nM/min)
# unit: nM/min | format: bare number

IN: Can you share its Specific activity? I mean this molecule: CC12CCC(=O)C=C1CCC1C2C(O)CC2(C)C1CC[C@]2(O)C(=O)CO[C@@H]1O[C@H](CO)[C@@H](O)[C@H](O)[C@H]1O (stereo partly specified)
OUT: 5.5

IN: Again, but for `O=[N+]([O-])c1ccc(O[C@@H]2O[C@H](CO)[C@@H](O[C@@H]3O[C@H](CO)[C@@H](O)[C@H](O)[C@H]3O)[C@H](O)[C@H]2O)cc1`
OUT: 34.2

IN: Again, but for CC1CC2C3CCC4=CC(=O)C=CC4(C)[C@@]3(F)C(O)CC2(C)[C@@]1(O)C(=O)CO[C@@H]1O[C@H](CO)[C@@H](O)[C@H](O)[C@H]1O (stereo partly specified)
OUT: 6.8

IN: Again, but for `C[C@]12C=CC(=O)C=C1CC[C@@H]1[C@@H]2[C@@H](O)C[C@@]2(C)[C@H]1CC[C@]2(O)C(=O)CO[C@@H]1O[C@H](CO)[C@@H](O[C@@H]2O[C@H](CO)[C@@H](O)[C@H](O)[C@H]2O)[C@H](O)[C@H]1O`
OUT: 7.5

IN: Again, but for CC12CCC(=O)C=C1CCC1C3CC[C@](O)(C(=O)CO[C@H]4O[C@H](CO)[C@@H](O)[C@H](O)[C@H]4O)C3(C)CC(O)[C@@]12F (stereo partly specified)
OUT: 7

IN: Again, but for CC12CCC(=O)C=C1CCC1C2C(O)CC2(C)C1CC[C@]2(O)C(=O)CO[C@@H]1O[C@@H](CO)[C@@H](O)[C@H](O)[C@H]1O (stereo partly specified)
OUT: 12.5

---

Answer each item with its documented Specific activity.
Species on record: Rattus norvegicus
Experiment: Specific activity of the cecum segment in rat intestine
Type: functional
# unit: nM/min | format: bare number

IN: Can you share its Specific activity? I mean this molecule: C[C@]12C=CC(=O)C=C1CC[C@@H]1[C@@H]2C(O)C[C@@]2(C)[C@H]1CC[C@]2(O)C(=O)CO[C@@H]1O[C@H](CO)[C@@H](O)[C@H](O)[C@H]1O (stereo partly specified)
OUT: 265

IN: Again, but for CC12CCC(=O)C=C1CCC1C3CC[C@](O)(C(=O)CO[C@H]4O[C@@H](CO)[C@@H](O)[C@H](O)[C@H]4O)C3(C)CC(O)[C@@]12F (stereo partly specified)
OUT: 49

IN: Again, but for `O=[N+]([O-])c1ccc(O[C@@H]2O[C@H](CO)[C@H](O)[C@H](O)[C@H]2O)cc1`
OUT: 1620

IN: Again, but for `O=[N+]([O-])c1ccc(O[C@@H]2O[C@H](CO)[C@@H](O)[C@H](O)[C@H]2O)cc1`
OUT: 454

IN: Again, but for CC1CC2C3CCC4=CC(=O)C=CC4(C)[C@@]3(F)C(O)CC2(C)[C@@]1(O)C(=O)CO[C@@H]1O[C@@H](CO)[C@@H](O)[C@H](O)[C@H]1O (stereo partly specified)
OUT: 322

IN: Again, but for `O=[N+]([O-])c1ccc(O[C@@H]2O[C@H](CO)[C@@H](O[C@@H]3O[C@H](CO)[C@@H](O)[C@H](O)[C@H]3O)[C@H](O)[C@H]2O)cc1`
OUT: 96.5

---

Organism: Rattus norvegicus
Assay: Specific activity of the cecum segment in rat intestine
Type: functional
Binarize Specific activity at 100 nM/min; below is Condition met, at or above is Condition not met.

IN: Problem: For the compound CC12CCC(=O)C=C1CCC1C2C(O)CC2(C)C1CC[C@]2(O)C(=O)CO[C@@H]1O[C@H](CO)[C@@H](O)[C@H](O)[C@H]1O (stereo partly specified) , is Specific activity under 100 nM/min?
OUT: Condition met

IN: Again, but for CC12CCC(=O)C=C1CCC1C3CC[C@](O)(C(=O)CO[C@H]4O[C@H](CO)[C@@H](O)[C@H](O)[C@H]4O)C3(C)CC(O)[C@@]12F (stereo partly specified)
OUT: Condition not met

IN: Again, but for CC12CCC(=O)C=C1CCC1C2C(O)CC2(C)C1CC[C@]2(O)C(=O)CO[C@@H]1O[C@@H](CO)[C@@H](O)[C@H](O)[C@H]1O (stereo partly specified)
OUT: Condition not met

IN: Again, but for `C[C@]12C=CC(=O)C=C1CC[C@@H]1[C@@H]2[C@@H](O)C[C@@]2(C)[C@H]1CC[C@]2(O)C(=O)CO[C@@H]1O[C@H](CO)[C@@H](O[C@@H]2O[C@H](CO)[C@@H](O)[C@H](O)[C@H]2O)[C@H](O)[C@H]1O`
OUT: Condition not met

IN: Again, but for CC1CC2C3CCC4=CC(=O)C=CC4(C)[C@@]3(F)C(O)CC2(C)[C@@]1(O)C(=O)CO[C@@H]1O[C@H](CO)[C@@H](O)[C@H](O)[C@H]1O (stereo partly specified)
OUT: Condition not met

IN: Again, but for C[C@]12C=CC(=O)C=C1CC[C@@H]1[C@@H]2C(O)C[C@@]2(C)[C@H]1CC[C@]2(O)C(=O)CO[C@@H]1O[C@@H](CO)[C@@H](O)[C@H](O)[C@H]1O (stereo partly specified)
OUT: Condition not met
